assay: Hemolytic activity in human RBC relative to control; format: cell-based, Erythrocyte; settings: red blood cells (erythrocytes), read-out: Activity
property-name: hemolysis

Please give the measured hemolysis for this molecule: `O=C(Cc1cc(=O)oc2cc(O)ccc12)Nc1nc2ccccc2o1` 92.5%

====

test: Antioxidant activity assessed as DPPH radical scavenging activity after 30 mins; type: functional
property-name: IC50 (µM)
Numeric only. Scale: µM

Please give the measured IC50 for this compound: `Oc1ccc(O)c(-c2nc3ncc(Cl)cc3[nH]2)c1` 72.5

Please give the measured IC50 for this compound: `Oc1ccc(-c2nc3ncc(Cl)cc3[nH]2)c(O)c1` 58.1
